Percentage intact, CWE 16h values, listed per item
# Measurement notes: Stability in chronic wound extracts (CWE), capillary zone electrophoresis
# Format: in vitro ADME, human
# Stated conditions: 1 mg/ml in PBS mixed 1:1 with CWE (1 mg/ml protein, pool of 5 donors) in PBS, 37°C, 16 h; CZE, UV 200 nm, ratio to imidazole, 0 h = 100%; experiment 3 of 3
# Procedure: Debridement tissue was obtained from chronic ulcers of 15 patients with therapy resistant (arterio-venous) leg ulcers, according to procedures described earlier. […] Total protein content of the supernatant was measured using the BioRad Protein Assay (BioRad Laboratories, Hercules, California, USA) essentially as described by the supplier. […]
Where no end group is shown, it is not given here.
Write the number in % without appending the unit.

cyclo(DNLPETGGDSHEKRHHGYRRKFHEKHHSHREFPFYGDYGSNYLY) [cHst1]
54.5266
RKFHEKHHSHREFPFYGDYGSNYLYDN [Hst2]
7.724
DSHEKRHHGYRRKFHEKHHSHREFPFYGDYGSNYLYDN [Hst1]
27.1396

Could you now look at the following substance, please?
# input Which Percentage intact, CWE 16h reading was recorded for the substance SHREFPFYGDYGS [mad-Hst1] ?
# output 57.6063

----------
# Measurement notes: Stability in chronic wound extracts (CWE), capillary zone electrophoresis
# Type: in vitro ADME, human
# Stated conditions: 1 mg/ml in PBS mixed 1:1 with CWE (1 mg/ml protein, pool of 5 donors) in PBS, 37°C, 72 h; CZE, UV 200 nm, ratio to imidazole, 0 h = 100%; experiment 3 of 3
Where no end group is shown, it is not given here.
Recorded metric: Percentage intact, CWE 72h (%)
Write the number in % without appending the unit.

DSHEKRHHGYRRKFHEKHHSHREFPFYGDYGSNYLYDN [Hst1]
0.0001
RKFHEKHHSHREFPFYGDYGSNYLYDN [Hst2]
0.0001
cyclo(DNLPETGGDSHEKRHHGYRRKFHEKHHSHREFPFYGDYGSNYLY) [cHst1]
20.7179

# input Which Percentage intact, CWE 72h reading was recorded for the substance SHREFPFYGDYGS [mad-Hst1] ?
# output 2.789

----------
# Measurement notes: Stability in chronic wound extracts (CWE), capillary zone electrophoresis
# Type: in vitro ADME, human
# Stated conditions: human, chronic wound extracts (CWE); 1 mg/ml in PBS mixed 1:1 with CWE (1 mg/ml protein, pools of 5 donors), 37°C, 8 h; CZE, 0 h = 100%; mean of 3 independent experiments; read-out: Original amount of peptide remaining intact after 8 h in CWE
Where no end group is shown, it is not given here.
remaining at 8 h, 0.5 mg/ml values, listed per item
Write the number in % without appending the unit.

Answered examples (3):
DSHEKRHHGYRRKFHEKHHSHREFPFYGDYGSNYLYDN [Hst1]
46
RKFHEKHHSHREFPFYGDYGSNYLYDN [Hst2]
53
cyclo(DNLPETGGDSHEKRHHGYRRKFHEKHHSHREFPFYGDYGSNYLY) [cHst1]
81

Could you now look at the following substance, please?
# input Which remaining at 8 h, 0.5 mg/ml reading was recorded for the substance SHREFPFYGDYGS [mad-Hst1] ?
# output 80

----------
# Measurement notes: Stability in CWE with protease inhibitor cocktail (PIC), capillary zone electrophoresis
# Format: in vitro ADME, human
# Stated conditions: 1 mg/ml in PBS mixed 1:1 with CWE (1 mg/ml protein, pool of 5 donors) in PBS containing PIC (final 1:140 v/v), 37°C, 16 h; CZE, ratio to imidazole, 0 h = 100%; experiment 1 of 3
Where no end group is shown, it is not given here.
Recorded metric: Percentage intact, CWE + PIC 16h (%)
Write the number in % without appending the unit.

# input Which Percentage intact, CWE + PIC 16h reading was recorded for the substance cyclo(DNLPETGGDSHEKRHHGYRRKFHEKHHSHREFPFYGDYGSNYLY) [cHst1] ?
# output 65.982

# input Which Percentage intact, CWE + PIC 16h reading was recorded for the substance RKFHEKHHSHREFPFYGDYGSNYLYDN [Hst2] ?
# output 76.054

# input Which Percentage intact, CWE + PIC 16h reading was recorded for the substance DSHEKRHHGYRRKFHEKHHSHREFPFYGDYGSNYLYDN [Hst1] ?
# output 72.2461

# input Which Percentage intact, CWE + PIC 16h reading was recorded for the substance SHREFPFYGDYGS [mad-Hst1] ?
# output 90.0803
